- experimental_protocol: OD615 S. cerevisiae growth inhibition, permissive medium, pilot counter-assay, permissive growth control for S. cerevisiae lifespan shortening project (AID 705)
- applied_conditions: OD615, 24 h, at 10 µM, active compounds read high
Form field: growth inhibition (one value per entry).
Write the value in % as a bare number.

Record excerpt, results attached:
COc1ccc(C2C3=C(CCCC3=O)Nc3nc(SCc4ccc(C(=O)O)cc4)nn32)cc1OC (stereo not drawn)	-7.69
Cn1c(NC(=O)C(C)(C)Oc2ccc(Cl)cc2)cc(=O)n(C)c1=O	-1.72
c1ccc(Oc2nc(Oc3ccccc3)nc(N3CCOCC3)n2)cc1	-3.76

If you can, please state the reported growth inhibition value of O=C(Cn1cc2c(n1)CCCC2)NC1CCCCCC1 .
4.4

Item under review: COc1ccccc1-c1c(C)nn2c(N3CCN(c4ccccc4OC)CC3)cc(C)nc12 . Reported growth inhibition?
-0.095

Which value of growth inhibition has been reported for C=C(C)Cn1c(C2CC(=O)N(c3ccccc3F)C2)nc2ccccc21 (stereo not drawn) in the records?
-9.62

###

The following compounds are listed with their measured RAM network inhibition values.
- experimental_protocol: RAM signaling pathway blockade in yeast – S. cerevisiae, Pdr1DBD-CYC8 efflux-inhibited sensitized strain, primary screen (AID 1298);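 further: 0% = DMSO untreated cells without growth and 100% = 10 µM 1-NA-PP1 full growth; higher means more yeast growth rescued from 5-FOA killing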
- applied_conditions: S. cerevisiae cbk1-as DSE1-URA3 strain, 5-FOA growth OD615, 2 d; at 50 µM; active compounds read high
Give the value, in units of %, as a plain number.

Some solved entries appear below for comparison.
Cc1nnc(NC(=O)CSc2cn(Cc3ccccc3)c3ccccc23)s1	2.77
CC1(C)Oc2ccc3ccc(=O)oc3c2/C(=C/Nc2ccccn2)C1=O	6.38
O=S(=O)(NC1c2cccc3cccc(c23)C1N1CCNCC1)c1ccccc1 (stereo unspecified)	2.72
O=C(O)C1CC=CCC1C(=O)Nc1cccc(Cl)c1Cl (stereo unspecified)	0.21
CCN(C(=O)COC(=O)C(Cc1ccccc1)N1C(=O)c2ccccc2C1=O)C1CCS(=O)(=O)C1 (stereo unspecified)	2.8
O=C(NCCn1ccc2ccccc21)c1ccc2c(c1)OCO2	6.97
COc1ccc(-c2nc(CNS(=O)(=O)c3cc(OC)ccc3OC)cs2)cc1	5.82
NC(=O)C1CCN(C(=O)CN(c2cccc(C(F)(F)F)c2)S(=O)(=O)c2ccccc2)CC1	4.31

Given Cc1sc2nc(SCC(=O)NCc3ccco3)n(C)c(=O)c2c1C , state its recorded RAM network inhibition.
3.82

I have this compound here, Cn1nnnc1SCc1ccc(F)cc1 , and I need its recorded RAM network inhibition.
2.61

Fill in: RAM network inhibition of c1ccc2c(c1)nc1n2CCN1CCNC1CCCCC1 is ___
1.2

For the compound shown here, COc1ccccc1N(CC(=O)N1CCCCCC1)S(C)(=O)=O , give the reported RAM network inhibition.
2.63

###

- experimental_protocol: inhibitors of the yeast RAM network, pilot screen, dse1pr::URA3 reporter, 5-FOA selection (AID 869);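 further: 0% = DMSO wells with no growth and 100% = 10 µM 1-NA-PP1 with full growth; RAM network block rescues cells from 5-FOA so hits raise OD615 growth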
- applied_conditions: S. cerevisiae dse1pr::URA3 5-FOA growth, OD615, 2 d; at 10 µM; active compounds read high; strain carries analog-sensitive mutant Cbk1 kinase
readout_kind: inhibition (%)
Give a bare numeral; the unit % is implied.

Cc1nn(-c2ccccc2)c2c1C(c1ccncc1)C(C#N)=C(N)O2 (stereo not drawn)	0.975
O=C(Cn1ncc2c1-c1ccccc1OC2)N(Cc1ccco1)C1CCCCC1	2.08
Cc1cc(C)c2c(=O)[nH]c(SCC(=O)N3CCCCC3)nc2n1	0.535
Cn1nc(-c2ccc(Cl)cc2)c2cc(C(=O)N3CCCC3)sc21	1.97
O=C(O)c1ccc(NC(=O)C2C3CCC(C3)C2C(=O)O)cc1 (stereo not drawn)	0.345
N#CC1=C(N)OC2=C(C(=O)CCC2)C1c1ccsc1 (stereo not drawn)	1.52

Note: attention shifts to another entry.
Which measured inhibition value corresponds to O=c1cc(O)c2c(=O)n(-c3ccccc3)c3ccccc3c2o1 ?
0.67

###

- experimental_protocol: growth suppression of beta-catenin knockout HCT116, pilot screen, human colon tumor cells (AID 823);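 further: 0% = wells killed by 20 µM Hyamine and 100% = untreated DMSO cell wells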
- applied_conditions: CellTiter-Glo, 60 h, at 10 µM, active compounds read low
Results filed as inconclusive are left out.
Below, each entry is listed with its recorded viability.
# output: bare number, implied unit %

Previously resolved entries follow.
CCN1CCN(c2cc(C)c3cc(NC(=O)Cc4ccc(OC)c(OC)c4)ccc3n2)CC1	75.5
CCCCCn1c(CNC(C)=O)nc2ccccc21	93.5
CCOC(=O)c1cc(NC(=O)NCc2ccco2)c(C)nc1C	105
C=C(C)CSc1nnc(-c2ccc(OC)c(OC)c2)n1N	96
CCCCC(CC)C(=O)NCCc1ccc(S(N)(=O)=O)cc1 (configuration not stated)	93.2
O=C(Cn1cc2c(n1)CCCC2)NCc1cccs1	105

Find the recorded viability belonging to Fc1ccc(OCc2nc(-c3ccc(Br)o3)no2)c(F)c1 and report it.
99.5

Record request: viability value, item COc1cccc(C2(O)CCN(C(=O)c3cccs3)CC2)c1
91.5

Any idea what its viability is? The compound is Cn1c(=O)c2c(nc(N3CCN(Cc4ccccc4)CC3)n2CCSc2ncccn2)n(C)c1=O
100

Form field: reported viability of O=C1CC(c2ccccc2)C(C(=O)Nc2ccccc2F)N1 (configuration not stated)
104

What value of viability has been recorded for this entry: CC(=O)c1coc2ccc(OCCN3CCCCC3)cc12
85.2

Which viability value is on record for O=C(CCCc1ccccc1)NCc1cn2ccsc2n1 ?
103

Form field: reported viability of COc1ccc(C(c2sc3ncnn3c2O)N2CC(C)OC(C)C2)cc1OC (configuration not stated)
102

Reported viability for O=C(NCC1CCCO1)c1ccc2c(c1)N(Cc1ccccc1)C(=O)CS2=O (configuration not stated) : what is it?
91.2

Would you kindly share the measured viability for O=C(NC1CCCCCCC1)C1CCC(CNc2c(N3CCCC3)c(=O)c2=O)CC1 (configuration not stated) ?
91.6

Any idea what viability was measured for CC(=O)Nc1nnc(SCc2cccc(F)c2)s1 ?
108

Need viability, item CCN(c1cccc(C)c1)c1ncnc2nc[nH]c12
103

Name the recorded viability for Cn1c(/N=C/c2cccs2)nc2ccccc21 .
93.9

Which measured viability value corresponds to CCc1ccc(Cn2nnc(C(=O)Nc3cccc(C)c3)c2N)cc1 ?
102

###

- experimental_protocol: growth suppression of beta-catenin knockout HCT116, pilot screen, human colon tumor cells (AID 823);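 further: 0% = wells killed by 20 µM Hyamine and 100% = untreated DMSO cell wells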
- applied_conditions: CellTiter-Glo, 60 h, at 10 µM, active compounds read low
Results filed as inconclusive are left out.
readout_kind: viability (%)
Write it as a number; the unit % goes unstated.

Cc1noc(C(=O)NCc2ccco2)c1Cl	102
Brc1ccc(CSc2nnc(-c3ccccn3)n2Cc2ccco2)cc1	15.2
O=C(c1ccc(CS(=O)(=O)c2ccccc2)o1)N1CCOCC1	105
COc1ccc(OCC(O)CN2CCCCC2)cc1 (centres undefined)	95
O=C(Nc1nccs1)C1CCN(S(=O)(=O)c2cccnc2)CC1	102

Reported viability for CCOC(=O)CCc1c(C)n(CC)c2ncnn2c1=O : what is it?
102

Find the recorded viability belonging to N#Cc1nc(COc2ccccc2F)oc1NCc1ccc(F)cc1 and report it.
92.1

Would you mind telling me what viability value was observed for COC(=O)Cn1c(CCC(=O)O)ccc1-c1ccccc1 ?
102

Request the reported viability associated with COc1cccc(C2CC(c3ccc(Cl)cc3Cl)n3nc(N)nc3N2)c1 (centres undefined)
90.8

Form field: reported viability of CCOc1ccc(CC(=O)N2CCN(c3ccc(N4CCOCC4)nn3)CC2)cc1OCC
103

I'd like to know its viability. The compound in question is CCc1ccc(C(=O)NCc2cccs2)s1
104

Would you kindly share the measured viability for Cc1onc(-c2ccccc2)c1C(=O)Nc1nnc(N2CCCCCC2)s1 ?
101

Could you tell me which viability is on file for CC1=C(C(N)=O)C(c2ccccc2)n2nc(-c3cccs3)nc2N1 (centres undefined) ?
101

Endpoint output: viability of CCSC1=C(C#N)C(c2ccc(C)s2)CC(=O)N1 (centres undefined) . Value?
95.8

Item COc1ccc(CN2CC34C=CC(O3)C(C(=O)O)C4C2=O)cc1 (centres undefined) has what recorded viability?
92.6

Suppose we examine the compound O=C1CC(C(=O)N2CCN(c3ccc(F)cc3)CC2)CN1CCc1ccccc1 (centres undefined) ; what viability value has been reported?
99.2

Please give the measured viability for this compound: O=C(NCCN1C(=O)C2C3C=CC(C3)C2C1=O)Nc1ccc(Br)cc1 (centres undefined)
103

// lookup viability for N#Cc1c2n(c3c(=O)n(CC(=O)c4ccc(Br)cc4)cnc13)CCCC2
86.1

Please give the measured viability for this compound: COc1ccc(C2C(C(=O)Nc3ccccn3)=C(C)Nc3ncnn32)c(OC)c1 (centres undefined)
101

GET /values?readout=viability&item= Cc1ccc2c(c1)c1c(n2CC(O)CNC(CO)(CO)CO)CCCC1 (centres undefined)
94.9

So what does the record say about viability for CCn1c(CNC(=O)c2ccc(OC)cc2)nnc1SC ?
90.6

# input compound: Clc1ccc(C2CC(c3cccs3)n3ncnc3N2)cc1Cl (centres undefined) ; wanted: its viability
80.2

I am curious: what viability value has been reported for O=C(O)CCCNS(=O)(=O)c1ccc(F)cc1 ?
105

For O=C(NC1CCN(Cc2ccccc2)CC1)c1ccccc1F , what is its reported viability?
95
